# Test protocol: Pharmacokinetics of paclitaxel in plasma, cycle 1 day 8 to day 9
# Type: in vivo, human
# Test context: human, in vivo, iv
Measured attribute: half-life (h)

compound="CC(=O)O[C@H]1C(=O)[C@@]2(C)[C@H]([C@H](OC(=O)c3ccccc3)[C@]3(O)C[C@H](OC(=O)[C@H](O)[C@@H](NC(=O)c4ccccc4)c4ccccc4)C(C)=C1C3(C)C)[C@]1(OC(C)=O)CO[C@@H]1C[C@@H]2O [paclitaxel]" unit_label=h recorded_value=13.6

----------
# Test protocol: Pharmacokinetics of paclitaxel in plasma, cycle 1 day 8 to day 9
# Type: in vivo, human
# Test context: human, in vivo, iv, paclitaxel 80 mg/m^2 i.v.; ganetespib 100 mg/m^2; n=3
Measured attribute: Cmax

item_smiles=CC(=O)O[C@H]1C(=O)[C@@]2(C)[C@H]([C@H](OC(=O)c3ccccc3)[C@]3(O)C[C@H](OC(=O)[C@H](O)[C@@H](NC(=O)c4ccccc4)c4ccccc4)C(C)=C1C3(C)C)[C@]1(OC(C)=O)CO[C@@H]1C[C@@H]2O recorded_value="3340 ng/mL"

Source listed as paper PMC5540198.
